Below are pIC50 values for Protein arginine N-methyltransferase 6 (Homo sapiens, UniProt Q96LA8) collected from several publications.
Answers are plain numbers, as −log10 of the molar value.

Observe how each entry below is paired with its result.
Ask | Entry CNCCN(C)Cc1cncc(-c2cccc(NC(=O)N3CCOCC3)c2)c1 , system Protein arginine N-methyltransferase 6 (Homo sapiens, UniProt Q96LA8): what pIC50 was measured?
Reply | 5.81

Ask | Next: CNCCN(C)Cc1cncc(-c2cccc(NS(=O)(=O)c3ccccc3C)c2)c1
Reply | 5.98

Ask | Next: CCn1/c(=C\C=C\C2=[N+](CC)c3cccc4cccc2c34)c2cccc3cccc1c32.[I-]
Reply | 4.90

With those in mind, consider the next compound.
Ask | Entry CC(=O)Nc1ccc(/N=N/c2c(S(=O)(=O)O)cc3cc(NC(=O)Nc4ccc5c(O)c(/N=N/c6ccccc6)c(S(=O)(=O)O)cc5c4)ccc3c2O)cc1 , system Protein arginine N-methyltransferase 6 (Homo sapiens, UniProt Q96LA8): what pIC50 was measured?
Reply | 4.41
